# test-summary: melting temperature; fluorescence melt of hairpins on a sequencing array, two-state fit, raised by 9.35 °C to match UV melts
# assay-context: sodium 0.088 M
Strictly below 50 °C in Tm: yes. Otherwise: no.

Request: API: query returns whether the sequence falls strictly under 50 °C in Tm. Query: GAGAAGCCGAAAGGCCTC (((..(((....))))))
Response: yes

Request: Another sequence: GCGTGCGGACGC ((((....))))
Response: no

Request: Another sequence: GTGGAGTCGAAAGACCAC (((..(((....))))))
Response: yes

Request: Another sequence: GGTAAGGGAAACCTCACC (((.(((....))).)))
Response: yes

Request: Another sequence: GGTTTGGAAACAAACC ((((((....))))))
Response: no

Request: Another sequence: GATCCAACACTGGATC ((((((....))))))
Response: yes

Request: Another sequence: GCAATACGAAAGTAATGC (((.(((....))).)))
Response: yes

Request: Another sequence: GGATGACGAAAGTCTTCC (((.(((....))).)))
Response: no

Request: Another sequence: GTCATTCGAAAGAAGGAC (((.(((....))).)))
Response: no

Request: Another sequence: GCTCGGCGAAAGCGGTGC ((.(.((....)).).))
Response: no

Request: Another sequence: GCATACGAAAGTATTTGC ((((((....)))..)))
Response: yes

Request: Another sequence: TTGCAGAAATGCAA (((((....)))))
Response: yes

Request: Another sequence: GACGCGGGAAACCGTGTC (((.(((....))).)))
Response: no

Request: Another sequence: GCAGGACGAAAGTCGTGC (((.(((....))).)))
Response: no

Request: Another sequence: GTTATGAAAATAAC (((((....)))))
Response: yes

Request: Another sequence: GATCTGAGCTCAGATC ((((((....))))))
Response: no

Request: Another sequence: GCAAGCGAAAGCTTCTGC ((((((....)))..)))
Response: yes

Request: Another sequence: GCTGGGACGAAAGTCAGC (((..(((....))))))
Response: yes

Request: Another sequence: GCACCGCGAAAGCGCCGC ((..(((....)))..))
Response: yes

Request: Another sequence: CGTTCACGGAAACGTACG (((..(((....))))))
Response: yes

Request: Another sequence: GGAGAACGAAAGTTTTCC (((.(((....))).)))
Response: yes

Request: Another sequence: GTACTCGAAAGAGATAC ((((((....))).)))
Response: yes

Request: Another sequence: GTACGTGGAAACACGCAC ((.((((....)))).))
Response: yes

###

# test-summary: folding enthalpy; higher = less favourable; fluorescence melt of hairpins on a sequencing array, two-state fit
# assay-context: sodium 0.088 M
Give true when the value for folding enthalpy is at least -20 kcal/mol. Give false when it is less.

Request: Quick check, folding enthalpy >= -20 kcal/mol? GCGGTACGAAAGTATCGC (((.(((....))).)))
Response: false

Request: Another sequence: GATCGTGGAGACGATC ((((((....))))))
Response: false

Request: Another sequence: GGGTTTGGAAACGAACTC (.(((.(....).))).)
Response: false

Request: Another sequence: GGAATCGAAAGATCTCC ((((((....))).)))
Response: true

Request: Another sequence: GGCTGTGGAAACACGGTC (.(.(((....))).).)
Response: false

Request: Another sequence: GCCGGGCGAAAGCCTCGC ((..(((....)))..))
Response: true

Request: Another sequence: GTAAGCGGAAACGTTTAC ((((.((....)).))))
Response: false

Request: Another sequence: GCTGGCCGAAAGGCGAGC (((.(((....))).)))
Response: false

Request: Another sequence: CGCTTCGGAAACGATGCG (((.(((....))).)))
Response: false

Request: Another sequence: GCAGGACGAAAGTCGTGC (((.(((....))).)))
Response: false

Request: Another sequence: GCTGCTGGAAACGGTAGC (((.(.(....).).)))
Response: false

Request: Another sequence: GCTTCAGGAAACTGAAAC (.(((((....))))).)
Response: true
